target: SIRT1 (Homo sapiens, UniProt Q96EB6); test: Trp mass spectrometry assay of SIRT1 activity; format: biochemical; settings: Trp assay; concentration giving 150% activation of SIRT1
Sequence (Q96EB6 whole entry): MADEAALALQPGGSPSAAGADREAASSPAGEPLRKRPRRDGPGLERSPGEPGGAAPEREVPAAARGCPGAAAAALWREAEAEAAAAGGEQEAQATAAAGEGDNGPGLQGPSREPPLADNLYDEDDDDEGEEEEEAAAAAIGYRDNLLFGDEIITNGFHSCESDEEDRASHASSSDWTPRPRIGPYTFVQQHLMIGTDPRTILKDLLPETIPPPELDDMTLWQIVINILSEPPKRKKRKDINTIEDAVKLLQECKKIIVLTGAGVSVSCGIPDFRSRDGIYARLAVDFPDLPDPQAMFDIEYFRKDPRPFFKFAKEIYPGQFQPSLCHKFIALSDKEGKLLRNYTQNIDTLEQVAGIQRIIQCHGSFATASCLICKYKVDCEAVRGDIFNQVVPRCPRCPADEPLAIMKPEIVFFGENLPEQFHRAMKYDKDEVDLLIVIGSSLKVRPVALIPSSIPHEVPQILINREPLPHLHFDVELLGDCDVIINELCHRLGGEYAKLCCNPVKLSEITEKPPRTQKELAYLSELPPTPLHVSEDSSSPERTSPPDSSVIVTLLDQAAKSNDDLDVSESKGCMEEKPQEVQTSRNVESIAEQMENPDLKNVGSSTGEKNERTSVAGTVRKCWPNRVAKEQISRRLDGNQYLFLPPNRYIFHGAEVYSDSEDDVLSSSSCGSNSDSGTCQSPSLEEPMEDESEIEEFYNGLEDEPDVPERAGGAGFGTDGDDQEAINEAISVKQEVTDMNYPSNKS
quantity.measured: Trp EC1.5 (μM)

[[record]]
compound = "Cc1nc2ccc(N3CC[C@H](F)C3)nn2c1C(=O)Nc1ccccn1 [Compound 840]"
experimental_target = "SIRT1 (Homo sapiens, UniProt Q96EB6)"
observed_result = "B (EC1.5 1-25 μM)"

[[record]]
compound = "O=C(Nc1cccnn1)c1cnc2ccc(N3CCC(F)(F)C3)nn12 [Compound 904]"
experimental_target = "SIRT1 (Homo sapiens, UniProt Q96EB6)"
observed_result = "B (EC1.5 1-25 μM)"

